The entries below are paired with their reported pKd.
Target: T1, PUF4 RNA-binding domain (Saccharomyces cerevisiae, UniProt P25339 537-888)
T1 sequence: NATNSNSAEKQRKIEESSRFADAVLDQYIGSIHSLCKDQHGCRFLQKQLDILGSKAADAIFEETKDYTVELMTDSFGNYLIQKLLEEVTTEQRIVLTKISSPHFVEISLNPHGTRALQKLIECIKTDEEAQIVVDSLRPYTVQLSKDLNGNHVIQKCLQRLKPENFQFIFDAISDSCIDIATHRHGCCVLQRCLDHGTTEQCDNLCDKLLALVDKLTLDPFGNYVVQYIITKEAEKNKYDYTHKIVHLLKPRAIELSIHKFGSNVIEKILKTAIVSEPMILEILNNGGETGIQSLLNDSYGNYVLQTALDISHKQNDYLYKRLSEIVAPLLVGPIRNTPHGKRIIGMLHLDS
Assay: Mg; RNA-MaP; 20 mM Na-HEPES pH 7.4, 30 mM KOAc, 0.75 mM MgCl2, 0.1% Tween-20, 5% glycerol, 0.1 mg/mL BSA, 2 mM DTT; 25 C; 0.0125-409.6 nM protein
Conditions: tags: N-His6-TEV cleaved; C-SNAP kept, Cy3B-labelled; label: tethered on chip by stalled RNA polymerase
pKd: −log10 of the molar value.
property_label: pKd

[[record]]
binder = "Ic_S4_P5E.1_K5.1_C5.1_H5.1_A5.1_[T5A]_[T6A]_[A7T]_F5.1_[T8A]_[T9C]_[A10G]_T5.1 (ssRNA) RNA: UUUGACAACUGAUCGUUCUUUCUUGUAAAUACGUUCUUUCUCGAUCAGUUGUCUUU"
property_label = "pKd"
relational_operator = "="
measured_number = 7.30

[[record]]
binder = "UCUCUUUGUAGCAGCUCUCUU (ssRNA) [Ic_S1_P4E.1_K4.1_C4.1_H4.1_A4.1_[T5G]_[A6C]_[T7A]_F4.1_[T8G]_[A9C]_T4.1]"
property_label = "pKd"
relational_operator = "<"
measured_number = 5.64

[[record]]
binder = "UCUCUUUGUAUAUGAAUCUCUU (ssRNA) [Ic_S1_P5E.1_K5.1_C5.1_H5.1_A5.1_[T6A]_[A7T]_F5.1_[T8G]_[T9A]_T5.1]"
property_label = "pKd"
relational_operator = "="
measured_number = 7.71

[[record]]
binder = "UCUCUUAGACACUAUAAUUCUCUU (ssRNA) [Id_ii_S1_P3E.4_K3.3_C3.2_[C-2A]_[T-1G]_H3.3_A3.1_F3.1_T3.2_[T9A]_[A10T]]"
property_label = "pKd"
relational_operator = "<"
measured_number = 5.64

